Tested on: HepG2
Test: cell viability relative to DMSO; higher = less toxic
Conditions: 72 h; 1000 nM
Measured Parameter: cell viability (%)
Return type: number; implicit unit %.

# annotated cases, reported cell viability shown
# Compound, Assayed System, cell viability (%)
records = [
    ("CC[C@]1(O)C[C@H]2CN(CCc3c([nH]c4ccccc34)[C@@](C(=O)OC)(c3cc4c(cc3OC)N(C=O)[C@H]3[C@@](O)(C(=O)OC)[C@H](OC(C)=O)[C@]5(CC)C=CCN6CC[C@]43[C@@H]65)C2)C1 [Vincristine (sulfate)]", "HepG2", 35.4),
    ("CC(C)NC[C@@H](O)COc1ccc(CC(N)=O)cc1 (racemic) [atenolol-(+/-)]", "HepG2", 96.2),
    ("CCOc1ccc(Cc2cc([C@]34OC[C@](CO)(O3)[C@@H](O)[C@H](O)[C@H]4O)ccc2Cl)cc1 [ertugliflozin]", "HepG2", 98.6),
]

# input Observed cell viability on HepG2 for "CC(C)N1Cc2cc(S(C)(=O)=O)ccc2N(CCN2CC=C(c3c[nH]c4cc(F)ccc34)CC2)S1(=O)=O" , please.
# output 105

# input Next compound up: CC1=CC(=O)c2ccccc2C1=O [menadione]
# output 106

# input Thanks! And "CN1CCc2cc(Cl)c(O)cc2[C@@H](c2ccccc2)C1" ?
# output 97.4

# input Param item: CCCN(CCC)[C@@H]1CCc2c(OC)cccc2[C@@H]1C [UH-232-(+)]
# output 102

# input Next up: CC(CCc1ccccc1)NCC(O)c1ccc(O)c(C(N)=O)c1 (stereo not drawn) [labetalol]
# output 90.5

* * *

Here the recorded cell viability is given for each entry.
Tested on: U2OS
Experiment: cell viability relative to DMSO; higher = less toxic
Conditions: 72 h; 10000 nM
Just the number please, in %, no unit attached.

# Compound, Measured Parameter, Experimental Value
data = [
    ("CC[C@]1(O)C[C@@H]2CN(CCc3c([nH]c4ccccc34)[C@@](C(=O)OC)(c3cc4c(cc3OC)N(C)[C@H]3[C@@](O)(C(=O)OC)[C@H](OC(C)=O)[C@]5(CC)C=CCN6CC[C@]43[C@@H]65)C2)C1 [Vinblastine (sulfate)]", "cell viability", 16.8),
    ("C[C@@H]1O[C@@H](O[C@H]2[C@H](Oc3cc(O)c4c(c3)O[C@H](c3ccc(O)cc3)CC4=O)O[C@H](CO)[C@@H](O)[C@@H]2O)[C@H](O)[C@H](O)[C@H]1O [Naringin (Naringoside)]", "cell viability", 108),
    ("Oc1cc(O)cc(O)c1 [phloroglucin]", "cell viability", 98.7),
]

# input Report cell viability for OCC(Br)(Br)Br [tribromoethanol] please.
# output 101

# input What about COc1cnc(NS(=O)(=O)c2ccc(N)cc2)nc1 [sulfameter] ?
# output 97.2

* * *

Test system: Vero E6
Test: cell viability relative to DMSO; higher = less toxic
Details: 72 h; 100 nM
Measured Parameter: cell viability (%)
Give just the number in %; leave the unit off.

# Compound, cell viability [%]
rows = [
    ("CSc1nc(NC2CCCC2)c([N+](=O)[O-])c(NC2CCCC2)n1", 107),
    ("Cc1nc2c(OCc3ccccc3)cccn2c1CC#N", 95.8),
    ("CC[C@]1(O)C[C@H]2CN(CCc3c([nH]c4ccccc34)[C@@](C(=O)OC)(c3cc4c(cc3OC)N(C=O)[C@H]3[C@@](O)(C(=O)OC)[C@H](OC(C)=O)[C@]5(CC)C=CCN6CC[C@]43[C@@H]65)C2)C1 [Vincristine (sulfate)]", 82.9),
]

# input API: value(readout= cell viability, system= Vero E6, query= "C=C1/C(=C\C=C2/CCC[C@]3(C)[C@@H]([C@H](C)/C=C/[C@H](C)C(C)C)CC[C@@H]23)C[C@@H](O)C[C@@H]1O" )
# output 97.1

# input Note, next up: "CCNC(=O)[C@H]1O[C@@H](n2cnc3c(N)nc(NCCc4ccc(CCC(=O)O)cc4)nc32)[C@H](O)[C@@H]1O"
# output 98.8

// provenance: the supplement of paper PMC13380429
